Provenance of the data: patent US9255100B2

TESTED_SYSTEM: N-terminally GST-tagged human full length recombinant Mps-1 kinase (Homo sapiens, UniProt P33981)
Construct: N-terminally GST-tagged human full length recombinant Mps-1 kinase; purchased Invitrogen, Karslruhe, Germany PV4071
Sequence (P33981 whole entry): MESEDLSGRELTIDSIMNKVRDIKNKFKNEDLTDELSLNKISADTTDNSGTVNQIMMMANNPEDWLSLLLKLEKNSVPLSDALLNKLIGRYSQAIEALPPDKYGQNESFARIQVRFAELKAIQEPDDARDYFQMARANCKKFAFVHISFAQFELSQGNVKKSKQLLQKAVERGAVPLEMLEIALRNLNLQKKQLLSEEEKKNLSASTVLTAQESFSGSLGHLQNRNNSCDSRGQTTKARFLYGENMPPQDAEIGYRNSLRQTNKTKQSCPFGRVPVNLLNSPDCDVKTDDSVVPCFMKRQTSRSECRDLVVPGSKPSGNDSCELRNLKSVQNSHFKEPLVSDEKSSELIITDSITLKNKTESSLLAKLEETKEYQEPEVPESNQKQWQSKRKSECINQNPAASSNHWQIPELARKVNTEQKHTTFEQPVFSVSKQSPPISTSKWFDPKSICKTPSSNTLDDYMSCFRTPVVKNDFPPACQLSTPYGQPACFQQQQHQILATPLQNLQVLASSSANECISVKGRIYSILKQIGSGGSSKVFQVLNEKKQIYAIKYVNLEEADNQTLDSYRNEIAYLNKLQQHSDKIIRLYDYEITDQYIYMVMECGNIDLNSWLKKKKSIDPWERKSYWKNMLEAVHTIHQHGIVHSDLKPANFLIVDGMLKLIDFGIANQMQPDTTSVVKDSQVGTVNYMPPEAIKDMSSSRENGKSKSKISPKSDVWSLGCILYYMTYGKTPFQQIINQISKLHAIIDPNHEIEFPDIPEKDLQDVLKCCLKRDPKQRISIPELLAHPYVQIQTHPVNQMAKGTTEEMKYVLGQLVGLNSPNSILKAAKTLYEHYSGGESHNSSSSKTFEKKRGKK
RUN_DESCRIPTION: Mps-1 kinase assay (TR-FRET)
Type: biochemical
MEASUREMENT_PARAMETERS: Mps1 IC50 [nM], 10 μM ATP, 1 μM peptide substrate, 60 min at 22° C.
Values of IC50 strictly less than 0.9 nM map to true (1), and values of at least 0.9 nM map to false (0).

- COMPOUND: "Cc1cc(-c2cnc3c(NCCCN4CCOCC4)cc(Oc4cccc(F)c4)nn23)ccc1C(=O)NC1CC1"
  ANSWER_LABEL: "true (1)"
- COMPOUND: "Cc1cc(-c2cnc3c(NCC(C)(C)O)cc(Oc4cccc5ncccc45)nn23)ccc1C(=O)NC1CC1"
  ANSWER_LABEL: "false (0)"
- COMPOUND: "Cc1ccc(Cl)cc1Nc1cc(NCC(C)(C)O)c2ncc(-c3ccc(C(=O)NC4CC4)c(C)c3)n2n1"
  ANSWER_LABEL: "true (1)"
- COMPOUND: "Cc1cc(-c2cnc3c(NCC(C)(C)O)cc(-c4ccoc4)nn23)ccc1C(=O)NC1CC1"
  ANSWER_LABEL: "false (0)"
- COMPOUND: "CNC(=O)N(C)CCCNc1cc(Oc2cccc(F)c2)nn2c(-c3ccc(C(=O)NC4CC4)c(C)c3)cnc12"
  ANSWER_LABEL: "true (1)"
- COMPOUND: "CNC(=O)c1ccc(-c2cnc3c(NCCOC)cc(Oc4ccc(OC)c(F)c4)nn23)cc1C"
  ANSWER_LABEL: "false (0)"
- COMPOUND: "CC(C)CNc1cc(-c2cccc(O)c2)nn2c(-c3ccc(C(=O)NC4CC4)cc3)cnc12"
  ANSWER_LABEL: "false (0)"
- COMPOUND: "Cc1cc(-c2cnc3c(NCC(C)(C)O)cc(Sc4cccc(F)c4)nn23)ccc1C(=O)NC1CC1"
  ANSWER_LABEL: "true (1)"
- COMPOUND: "COc1cc(C(=O)NC2CC2)ccc1-c1cnc2c(NCC(C)(C)O)cc(-c3ccnn3C)nn12"
  ANSWER_LABEL: "false (0)"
- COMPOUND: "C=Cc1cc(NCCC(F)(F)F)c2ncc(-c3ccc(C(=O)NC4CC4)c(C)c3)n2n1"
  ANSWER_LABEL: "false (0)"
- COMPOUND: "Cc1cc(-c2cnc3c(NCCC(F)(F)F)cc(Nc4ccc(Cl)cc4F)nn23)ccc1C(=O)NC1CC1"
  ANSWER_LABEL: "true (1)"
- COMPOUND: "CNC(=O)c1ccc(-c2cnc3c(NCCN4CCOCC4)cc(Oc4ccc(OC)cc4F)nn23)cc1C"
  ANSWER_LABEL: "false (0)"
- COMPOUND: "Cc1cc(-c2cnc3c(NCCCN(C)C)cc(Oc4cccc(F)c4)nn23)ccc1C(=O)NC1CC1"
  ANSWER_LABEL: "true (1)"
- COMPOUND: "Cc1cc(-c2cnc3c(NCCC(F)(F)F)cc(Oc4cccc(F)c4F)nn23)ccc1C(=O)NC1CC1"
  ANSWER_LABEL: "true (1)"
- COMPOUND: "COc1ccc(Nc2cc(NCCC(F)(F)F)c3ncc(-c4ccc(C(=O)NC5CC5)c(C)c4)n3n2)cc1"
  ANSWER_LABEL: "true (1)"
- COMPOUND: "Cc1cc(-c2cnc3c(NCC4(C)CCCO4)cc(-c4ccncc4)nn23)ccc1C(=O)NC1CC1 (racemic)"
  ANSWER_LABEL: "false (0)"
- COMPOUND: "CC(C)CNc1cc(-c2cccc(Cl)c2)nn2c(-c3ccc(C(=O)NC4CC4)cc3)cnc12"
  ANSWER_LABEL: "false (0)"
- COMPOUND: "Cc1cc(-c2cnc3c(NCc4cc[nH]n4)cc(Oc4cccc(F)c4)nn23)ccc1C(=O)NC1CC1"
  ANSWER_LABEL: "true (1)"
- COMPOUND: "CC=Cc1cc(NCC(C)(C)O)c2ncc(-c3ccc(C(=O)NC4CC4)c(C)c3)n2n1 (mixture of isomers)"
  ANSWER_LABEL: "false (0)"
